Just for reference, ChEMBL document CHEMBL3244395 is where these values come from.

test system: Cryptococcus neoformans; assay: Antifungal activity against Cryptococcus neoformans assessed as lowest concentration required for total inhibition by broth dilution assay; format: functional; settings: read-out: MIC100
property: MIC

{"columns": ["compound", "target or test system", "property", "observed value"],
 "data": [
  ["Clc1ccc(COC(Cn2ccnc2)c2ccc(Cl)cc2Cl)c(Cl)c1 (stereo not given)", "Cryptococcus neoformans", "MIC", "< 0.3 µg/mL"],
  ["O=C(Cc1ccccc1)SC(Cn1ccnc1)c1ccc(Cl)cc1Cl.O=[N+]([O-])O (stereo not given)", "Cryptococcus neoformans", "MIC", "< 1 µg/mL"],
  ["CCCOC(=S)SC(Cn1ccnc1)c1ccc(Cl)cc1Cl.O=[N+]([O-])O (stereo not given)", "Cryptococcus neoformans", "MIC", "< 0.3 µg/mL"],
  ["CCCCCOC(=S)SC(Cn1ccnc1)c1ccc(Cl)cc1Cl.O=[N+]([O-])O (stereo not given)", "Cryptococcus neoformans", "MIC", "< 1 µg/mL"],
  ["CC(C)OC(=S)SC(Cn1ccnc1)c1ccc(Cl)cc1Cl.O=[N+]([O-])O (stereo not given)", "Cryptococcus neoformans", "MIC", "< 0.3 µg/mL"]
]}

====

assay: Lipophilic-hydrophilic balance, Rm of the compound assessed as change in compound Rm to miconazole Rm by reverse-phase TLC method; format: physicochemical; conditions: silicone oil-impregnated silica gel, MeCN-H2O-AcOH
# cutoff -0.09 applies to deltaRm; >= gives Fulfilled, < gives Not fulfilled

{"columns": ["compound", "class label"],
 "data": [
  ["O=C(Sc1ccccc1)SC(Cn1ccnc1)c1ccc(Cl)cc1Cl.O=[N+]([O-])O (centres undefined)", "Fulfilled"],
  ["CCCCCCC(=O)OC(Cn1ccnc1)c1ccc(Cl)cc1Cl.O=[N+]([O-])O (centres undefined)", "Not fulfilled"],
  ["O=C(OC(Cn1ccnc1)c1ccc(Cl)cc1)c1ccc(Cl)cc1.O=[N+]([O-])O (centres undefined)", "Not fulfilled"],
  ["CCCCOC(=S)SC(Cn1ccnc1)c1ccc(Cl)cc1Cl.O=[N+]([O-])O (centres undefined)", "Fulfilled"],
  ["CC(C)OC(=S)SC(Cn1ccnc1)c1ccc(Cl)cc1Cl.O=[N+]([O-])O (centres undefined)", "Not fulfilled"],
  ["O=C(O)C(=O)O.S=C(OCc1ccccc1)SC(Cn1ccnc1)c1ccc(Cl)cc1Cl (centres undefined)", "Not fulfilled"],
  ["O=C(SC(Cn1ccnc1)c1ccc(Cl)cc1Cl)c1ccc(Cl)cc1.O=[N+]([O-])O (centres undefined)", "Fulfilled"],
  ["CCCCCOC(=S)SC(Cn1ccnc1)c1ccc(Cl)cc1Cl.O=[N+]([O-])O (centres undefined)", "Fulfilled"]
]}

====

tested on: Cryptococcus neoformans; assay: Antifungal activity against Cryptococcus neoformans assessed as lowest concentration required for total inhibition by broth dilution assay; assay type: functional; settings: read-out: MIC100

{"columns": ["molecule", "MIC"],
 "data": [
  ["CCCCCCCCOC(=O)SC(Cn1ccnc1)c1ccc(Cl)cc1Cl.O=[N+]([O-])O (stereo not given)", "< 1 µg/mL"],
  ["CC(C)COC(=S)SC(Cn1ccnc1)c1ccc(Cl)cc1Cl.O=[N+]([O-])O (stereo not given)", "< 0.3 µg/mL"],
  ["O=C(O)C(=O)O.S=C(OCc1ccccc1)SC(Cn1ccnc1)c1ccc(Cl)cc1Cl (stereo not given)", "< 0.3 µg/mL"],
  ["O=C(SC(Cn1ccnc1)c1ccc(Cl)cc1Cl)c1ccccc1Cl.O=[N+]([O-])O (stereo not given)", "< 1 µg/mL"],
  ["CCCCCCCCOC(=S)SC(Cn1ccnc1)c1ccc(Cl)cc1Cl.O=[N+]([O-])O (stereo not given)", "< 1 µg/mL"],
  ["O=C(SC(Cn1ccnc1)c1ccc(Cl)cc1Cl)c1ccc(Cl)cc1.O=[N+]([O-])O (stereo not given)", "< 1 µg/mL"],
  ["O=[N+]([O-])O.S=C(OC1CCCCC1)SC(Cn1ccnc1)c1ccc(Cl)cc1Cl (stereo not given)", "< 1 µg/mL"],
  ["O=C(Cc1ccc(Cl)cc1)SC(Cn1ccnc1)c1ccc(Cl)cc1Cl.O=[N+]([O-])O (stereo not given)", "< 1 µg/mL"],
  ["CCCCCCCCOC(=O)OC(Cn1ccnc1)c1ccc(Cl)cc1Cl.O=[N+]([O-])O (stereo not given)", "3 µg/mL"],
  ["CCCCCOC(=S)SC(Cn1ccnc1)c1ccc(Cl)cc1.O=C(O)C(=O)O (stereo not given)", "3 µg/mL"],
  ["O=C(OC(Cn1ccnc1)c1ccc(Cl)cc1)c1ccc(Cl)cc1.O=[N+]([O-])O (stereo not given)", "10 µg/mL"],
  ["CCCCCCCCCCCC(=O)OC(Cn1ccnc1)c1ccc(Cl)cc1Cl.O=[N+]([O-])O (stereo not given)", "< 1 µg/mL"],
  ["CCCSC(=O)OC(Cn1ccnc1)c1ccc(Cl)cc1Cl.O=C(O)C(=O)O (stereo not given)", "3 µg/mL"],
  ["CCOC(=S)SC(Cn1ccnc1)c1ccc(Cl)cc1Cl.O=[N+]([O-])O (stereo not given)", "1 µg/mL"],
  ["CCCCCCOC(=O)OC(Cn1ccnc1)c1ccc(Cl)cc1Cl.O=[N+]([O-])O (stereo not given)", "30 µg/mL"],
  ["O=C(/C=C/c1ccccc1)SC(Cn1ccnc1)c1ccc(Cl)cc1Cl.O=[N+]([O-])O (stereo not given)", "< 1 µg/mL"],
  ["CC(C)(C)SC(=O)SC(Cn1ccnc1)c1ccc(Cl)cc1Cl.O=[N+]([O-])O (stereo not given)", "3 µg/mL"],
  ["O=C(Cc1ccc(Cl)cc1)OC(Cn1ccnc1)c1ccc(Cl)cc1Cl.O=[N+]([O-])O (stereo not given)", "3 µg/mL"],
  ["O=C(OC(Cn1ccnc1)c1ccc(Cl)cc1Cl)c1ccc(Cl)cc1Cl.O=[N+]([O-])O (stereo not given)", "3 µg/mL"],
  ["CCCCOC(=S)SC(Cn1ccnc1)c1ccc(Cl)cc1Cl.O=[N+]([O-])O (stereo not given)", "1 µg/mL"]
]}

====

system: Staphylococcus aureus; experiment: Antibacterial activity against Staphylococcus aureus ATCC 12600 assessed as lowest concentration required for total inhibition by broth microdilution assay; format: functional; conditions: read-out: MIC100

{"columns": ["compound", "target or test system", "MIC"],
 "data": [
  ["Clc1ccc(COC(Cn2ccnc2)c2ccc(Cl)cc2Cl)c(Cl)c1 (stereo not given) [MICONAZOLE]", "Staphylococcus aureus", "1 µg/mL"],
  ["CCCCCCCCCCCC(=O)OC(Cn1ccnc1)c1ccc(Cl)cc1Cl.O=[N+]([O-])O (stereo not given)", "Staphylococcus aureus", "10 µg/mL"],
  ["CC(C)(C)SC(=O)SC(Cn1ccnc1)c1ccc(Cl)cc1Cl.O=[N+]([O-])O (stereo not given)", "Staphylococcus aureus", "3 µg/mL"],
  ["CCCCCCCCOC(=O)SC(Cn1ccnc1)c1ccc(Cl)cc1Cl.O=[N+]([O-])O (stereo not given)", "Staphylococcus aureus", "1 µg/mL"],
  ["CCCCCCCCOC(=S)SC(Cn1ccnc1)c1ccc(Cl)cc1Cl.O=[N+]([O-])O (stereo not given)", "Staphylococcus aureus", "> 100 µg/mL"],
  ["CCCCCOC(=S)SC(Cn1ccnc1)c1ccc(Cl)cc1Cl.O=[N+]([O-])O (stereo not given)", "Staphylococcus aureus", "3 µg/mL"],
  ["O=C(SC(Cn1ccnc1)c1ccc(Cl)cc1Cl)c1ccccc1Cl.O=[N+]([O-])O (stereo not given)", "Staphylococcus aureus", "10 µg/mL"],
  ["O=C(SC(Cn1ccnc1)c1ccc(Cl)cc1Cl)c1ccc(Cl)cc1.O=[N+]([O-])O (stereo not given)", "Staphylococcus aureus", "3 µg/mL"],
  ["O=C(Sc1ccccc1)SC(Cn1ccnc1)c1ccc(Cl)cc1Cl.O=[N+]([O-])O (stereo not given)", "Staphylococcus aureus", "10 µg/mL"],
  ["CCCCCCCC(=O)SC(Cn1ccnc1)c1ccc(Cl)cc1Cl.O=C(O)C(=O)O (stereo not given)", "Staphylococcus aureus", "3 µg/mL"]
]}

====

tested on: Enterococcus faecalis; assay: Antibacterial activity against Streptococcus faecalis ATCC 14506 assessed as lowest concentration required for total inhibition by broth microdilution assay; assay type: functional; conditions: read-out: MIC100

{"columns": ["molecule", "MIC / µg/mL"],
 "data": [
  ["CCCCCOC(=S)SC(Cn1ccnc1)c1ccc(Cl)cc1Cl.O=[N+]([O-])O (stereo not given)", 10],
  ["CCCCCCCCCCCC(=O)OC(Cn1ccnc1)c1ccc(Cl)cc1Cl.O=[N+]([O-])O (stereo not given)", 100],
  ["O=C(SC(Cn1ccnc1)c1ccc(Cl)cc1Cl)c1ccc(Cl)cc1.O=[N+]([O-])O (stereo not given)", 100],
  ["CCCCCCCCOC(=S)SC(Cn1ccnc1)c1ccc(Cl)cc1Cl.O=[N+]([O-])O (stereo not given)", 1],
  ["Clc1ccc(COC(Cn2ccnc2)c2ccc(Cl)cc2Cl)c(Cl)c1 (stereo not given) [MICONAZOLE]", 10],
  ["CC(C)(C)SC(=O)SC(Cn1ccnc1)c1ccc(Cl)cc1Cl.O=[N+]([O-])O (stereo not given)", 10],
  ["O=C(SC(Cn1ccnc1)c1ccc(Cl)cc1Cl)c1ccccc1Cl.O=[N+]([O-])O (stereo not given)", 30],
  ["CCCCCCCC(=O)SC(Cn1ccnc1)c1ccc(Cl)cc1Cl.O=C(O)C(=O)O (stereo not given)", 30],
  ["CCCCCCCCOC(=O)SC(Cn1ccnc1)c1ccc(Cl)cc1Cl.O=[N+]([O-])O (stereo not given)", 30],
  ["O=C(Sc1ccccc1)SC(Cn1ccnc1)c1ccc(Cl)cc1Cl.O=[N+]([O-])O (stereo not given)", 30]
]}
